Values were extracted from patent EP2759295A1.

TGT: SIRT1 (Homo sapiens, UniProt Q96EB6)
Construct: purchased Biomol International, Inc. / Enzo Life Sciences / BlueSky BioTech
Sequence (Q96EB6 whole entry): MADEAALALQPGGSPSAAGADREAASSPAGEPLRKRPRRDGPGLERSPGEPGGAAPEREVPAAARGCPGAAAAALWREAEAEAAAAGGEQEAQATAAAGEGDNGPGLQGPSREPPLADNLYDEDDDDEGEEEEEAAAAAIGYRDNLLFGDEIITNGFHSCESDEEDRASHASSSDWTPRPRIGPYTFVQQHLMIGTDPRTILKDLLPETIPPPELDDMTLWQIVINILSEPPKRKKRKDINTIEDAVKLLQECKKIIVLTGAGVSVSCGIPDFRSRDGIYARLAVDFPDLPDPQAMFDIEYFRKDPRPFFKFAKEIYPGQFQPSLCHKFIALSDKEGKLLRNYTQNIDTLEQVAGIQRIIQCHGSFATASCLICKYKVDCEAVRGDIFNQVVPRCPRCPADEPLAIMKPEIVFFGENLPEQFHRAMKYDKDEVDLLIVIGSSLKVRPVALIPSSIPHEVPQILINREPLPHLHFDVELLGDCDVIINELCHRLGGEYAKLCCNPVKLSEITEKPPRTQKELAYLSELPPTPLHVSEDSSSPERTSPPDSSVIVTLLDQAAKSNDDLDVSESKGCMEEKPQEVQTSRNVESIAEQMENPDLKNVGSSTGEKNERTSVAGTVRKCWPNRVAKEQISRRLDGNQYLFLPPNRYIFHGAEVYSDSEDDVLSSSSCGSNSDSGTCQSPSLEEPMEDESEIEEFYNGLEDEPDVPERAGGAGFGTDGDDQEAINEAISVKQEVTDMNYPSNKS
METHOD DESCRIPTION: MALDI-TOF MS deacetylation assay
Type: biochemical
SETUP CONDITIONS: uncorrected, not at initial velocity conditions; read-out: Obtained IC50'
Description: The assay was performed in a 20 µL reaction. 0.5 µM acetylated peptide and 120 µM NAD^+ in reaction buffer (50 mM Tris-acetate (pH 8), 137 mM NaCl, 2.7 mM KCI, 1 mM MgCl2, 5 mM DTT, 0.05 % BSA) were mixed with compound or DMSO (VC). Reactions were initiated by adding 10 nM of SIRT1. […] Samples were measured automatically (AutoXecute software, Bruker Daltonik GmbH) using an ultraflex II MALDI-TOF mass spectrometer (Bruker Daltonik GmbH) in positive ion reflector mode. […]
# reported pIC50; entries follow
Reminder that pIC50 is minus the log10 of a molar concentration.

Look over these answered cases.
// query // output pIC50; input COC1C(OC(N)=O)C(O)C(Oc2ccc(-c3coc4cc(O)cc(O)c4c3=O)cc2)OC1(C)C (centres unmarked) ; system SIRT1 (Homo sapiens, UniProt Q96EB6)
// result 4.17

// query // output pIC50; input O=c1cc(-c2ccc(O)c(-c3c(O)cc(O)c4c(=O)cc(-c5ccc(O)cc5)oc34)c2)oc2cc(O)cc(O)c12 ; system SIRT1 (Homo sapiens, UniProt Q96EB6)
// result 4.30

// query // output pIC50; input O=C1CC(c2ccccc2)Oc2c(Cc3cccc(O)c3O)c(O)c(Cc3cccc(O)c3O)c(O)c21 (centres unmarked) ; system SIRT1 (Homo sapiens, UniProt Q96EB6)
// result 4.20

// query // output pIC50; input COc1c(-c2c(O)cc(O)c3c(=O)cc(-c4ccc(O)cc4)oc23)c(O)cc2oc(-c3ccc(O)cc3)cc(=O)c12 ; system SIRT1 (Homo sapiens, UniProt Q96EB6)
// result 4.41

Lab note: next compound to report on.
// query // output pIC50; input COc1cc(-c2ccc(O)cc2)c(OC)c(O)c1C1=CC(=O)OC1CC(=O)O (centres unmarked) ; system SIRT1 (Homo sapiens, UniProt Q96EB6)
// result 4.89
